src = patent US20160340421A1

Recorded T1/2 by entry
assayed.target: T1, hGDF11 homodimer (human, UniProt O95390 299-407)
T1 sequence (looked up): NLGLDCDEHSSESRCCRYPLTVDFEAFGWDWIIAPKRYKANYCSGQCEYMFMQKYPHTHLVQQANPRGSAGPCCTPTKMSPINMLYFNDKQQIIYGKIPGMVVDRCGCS
measurement.notes: SPR, antibody captured, 25 nM antigen

| binder | unit.of.measure | T1/2 |
| --- | --- | --- |
| 22-G10 (antibody, V domains shown) VH: QVHLKESGPTLVKPTQTLTLTCTFSGFSLSTSGVGVGWIRQPPGKALEWLALIYWNDDKRYSPSLKSRLTITKDTSKNQVVLTMTNMDPVDTATYYCTHTSRYNWHYGFLDYWGQGTTVTVSS VL: AIQMTQSPSSLSASVGDRVTITCRASQGISNYLAWFQQKPGKAPKSLIYAASSLQSGVPSKFSGSGSGTDFTLTISSLQPEDFATYYCQQYNSYPLTFGGGTKVEIKR | min | 50 |
| 22-D3 (antibody, V domains shown) VH: QVQLVQSGGGLVKPGGSLRLSCAASGFTFSSYSMNWVRQAPGKGLEWVSSISSSSSYIYYADSVKGRFTISRDNAKNSLYLQMNSLRAEDTAVYYCARDRGYTFGVDYWGQGTTVTVSS VL: AIQMTQSPSSLSASVGDRVTITCRASQGIRNDLGWYQQKPGKAPKRLIYAASSLQSGVPSRFSGSGSGTEFTLTISSLQPEDFATYYCLQHNSYPYTFGQGTKVEIKR | min | 21 |
